- experimentalTarget: RET(KD: 658-1114 G810R) (Homo sapiens, UniProt P07949, G810R)
- Construct: 658-1114; expressed in transfected cells; host or cells: 293T.165 (293T cells, generated in-house)
- Sequence (P07949 658-1114 G810R): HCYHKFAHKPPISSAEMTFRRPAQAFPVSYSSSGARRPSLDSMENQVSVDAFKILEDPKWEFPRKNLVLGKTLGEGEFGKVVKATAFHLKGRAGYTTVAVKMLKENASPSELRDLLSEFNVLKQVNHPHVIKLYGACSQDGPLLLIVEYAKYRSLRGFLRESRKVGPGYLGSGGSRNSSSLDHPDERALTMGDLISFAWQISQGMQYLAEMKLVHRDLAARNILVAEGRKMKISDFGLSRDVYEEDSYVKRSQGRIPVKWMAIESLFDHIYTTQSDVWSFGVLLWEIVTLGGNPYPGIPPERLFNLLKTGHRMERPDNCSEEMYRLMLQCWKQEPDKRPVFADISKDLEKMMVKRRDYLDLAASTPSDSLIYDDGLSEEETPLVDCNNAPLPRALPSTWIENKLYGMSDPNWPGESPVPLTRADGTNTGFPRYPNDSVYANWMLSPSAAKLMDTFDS
- protocolDetails: HiBiT-Degradation, RET G810R degradation assay (Nano-Glo HiBiT Lytic), 293T.165 cells
- Format: cell-based
- protocolConditions: RET G810R, 6.0 hours, read-out: HiBiT-Degradation 293T.165 RET(KD: 658-1114 G810R) 6.0 hours (Emax)
attributeMeasured: Emax

Solved cases below.
CCC1(C(=O)NC(C)C)CCN(c2ccc(-c3nc(-c4cnn(C5CCN(C(=O)CC6(O)CCN(c7ccc(NC8CCC(=O)NC8=O)c(F)c7)CC6)CC5)c4)cn4ncc(C#N)c34)cn2)CC1 (centres unmarked) ... < 50%
N#Cc1cnn2cc(-c3cnn(C4CCN(C(=O)NC5CCN(c6ccc(NC7CCC(=O)NC7=O)cc6F)CC5)CC4)c3)cc(-c3ccc(N4CCN(Cc5ccccn5)CC4)nc3)c12 (centres unmarked) ... < 50%

Give the measured Emax of CN(Cc1ccc(-c2cn3ncc(C#N)c3c(-c3ccc(N4CCN(Cc5ccccn5)CC4)nc3)n2)cc1)C(=O)CN1CCC(c2ccc(NC3CCC(=O)NC3=O)cc2)CC1 (centres unmarked) .
< 50%

Give the measured Emax of N#Cc1cnn2cc(-c3ccc(N4CCN(C(=O)CN5CCC(c6ccc(NC7CCC(=O)NC7=O)cc6F)CC5)CC4)nc3)cc(-c3ccc(N4CCN(Cc5ccccn5)CC4)nc3)c12 (centres unmarked) .
< 50%

Give the measured Emax of CCC1(C(=O)NC(C)C)CCN(c2ccc(-c3nc(-c4cnn(C5CCN(C(=O)CC6(O)CCN(c7ccc(N[C@@H]8CCC(=O)NC8=O)cc7F)CC6)CC5)c4)cn4ncc(C#N)c34)cn2)CC1 (single isomer, unassigned) .
< 30%

Give the measured Emax of CC(C)NC(=O)C1(C)CCN(c2ccc(-c3cc(-c4cnn([C@H]5CC[C@H](CCN6CCC(c7ccc8c(N9CCC(=O)NC9=O)nn(C)c8c7)CC6)CC5)c4)cn4ncc(C#N)c34)cn2)CC1 .
< 30%

Give the measured Emax of N#Cc1cnn2cc(-c3cnn(C4CCN(C(=O)CN5CCC(c6ccc(NC7CCC(=O)NC7=O)cc6F)CC5)CC4)c3)cc(-c3ccc(N4CC5CC(C4)N5Cc4cccnc4)nc3)c12 (centres unmarked) .
< 30%

Give the measured Emax of N#Cc1cnn2cc(-c3ccc(N4CCN(C(=O)CN5CCC(c6ccc(NC7CCC(=O)NC7=O)cc6)CC5)CC4)cc3)cc(-c3ccc(N4CCN(C(=O)Cc5ccc(F)cn5)CC4)nc3)c12 (centres unmarked) .
< 30%

Give the measured Emax of CCC1(C(=O)NC(C)C)CCN(c2ccc(-c3nc(-c4cnn(C5CCN(C(=O)CC6(O)CCN(c7ccc(NC8CCC(=O)NC8=O)cc7)CC6)CC5)c4)cn4ncc(C#N)c34)cn2)CC1 (centres unmarked) .
< 50%

Give the measured Emax of COCC1(Cc2ccccn2)CCN(c2ccc(-c3nc(-c4cnn(C5CCN(C(=O)CN6CCC(c7ccc(NC8CCC(=O)NC8=O)cc7F)CC6)CC5)c4)cn4ncc(C#N)c34)cn2)CC1 (centres unmarked) .
< 30%

Give the measured Emax of N#Cc1cnn2cc(-c3cnn(C4CCN(C(=O)CN5CCC(c6ccc(NC7CCC(=O)NC7=O)cc6F)CC5)CC4)c3)nc(-c3ccc(N4CCC(Cc5ccccn5)CC4)nc3)c12 (centres unmarked) .
< 50%

Give the measured Emax of CCC1(C(=O)NC(C)C)CCN(c2ccc(-c3cc(-c4cnn([C@H]5CC[C@@H](N6CCC(c7ccc(NC8CCC(=O)NC8=O)cc7F)CC6)CC5)c4)cn4ncc(C#N)c34)cn2)CC1 (some centres unmarked) .
< 50%

Give the measured Emax of CCC1(C(=O)NC(C)C)CCN(c2ccc(-c3nc(-c4cnn(C5CCN(C(=O)CC6(O)CCN(c7ccc(N[C@H]8CCC(=O)NC8=O)cc7F)CC6)CC5)c4)cn4ncc(C#N)c34)cn2)CC1 (single isomer, unassigned) .
< 50%

Give the measured Emax of N#Cc1cnn2cc(-c3cnn(C4CCN(C(=O)CN5CCC(c6ccc(NC7CCC(=O)NC7=O)cc6F)CC5)CC4)c3)cc(-c3ccc(N4CC5CC(C4)N5Cc4ccccn4)nc3)c12 (centres unmarked) .
< 30%

Give the measured Emax of CCC1(C(=O)NC2CCC2)CCN(c2ccc(-c3nc(-c4cnn(C5CCN(C(=O)CC6(O)CCN(c7ccc(NC8CCC(=O)NC8=O)cc7F)CC6)CC5)c4)cn4ncc(C#N)c34)cn2)CC1 (centres unmarked) .
< 30%
